- Tested on: Plasmodium falciparum
- assay-comment: GSK_TCMDC: Inhibition of Plasmodium falciparum 3D7 in whole erythrocytes, using parasite LDH activity as an index of growth.
- Format: functional, organism-based
- reported-conditions: Plasmodium falciparum, 3D7
Rule: XC50 below 800 nM gives Fulfilled. Equal to or above 800 nM gives Not fulfilled.

1. O=C(Nc1ccc(OC(F)(F)F)cc1)Nc1ccc([N+](=O)[O-])cc1 = Not fulfilled
2. COc1ccc(NC(=O)Nc2ccc(-c3ccncc3)c(C(F)(F)F)c2)cc1N1CCN(C)CC1 = Fulfilled
3. NCc1cccc(-c2ccc(CNC3CCN(Cc4ccccc4)CC3)cc2)c1 = Not fulfilled
4. COC(=O)c1c(NC(=O)c2cccc(C(F)(F)F)c2)sc2c1CCN(Cc1ccccc1)C2 = Not fulfilled
5. CC1CN(Cc2ccc(-c3ccc(-c4nc5cc(F)ccc5[nH]4)cc3)cc2)CC(C)O1 (stereo not given) = Fulfilled
6. Oc1ccc(OCc2ccccn2)cc1 = Not fulfilled
7. CCCCN(C)CC#Cc1ccc2[nH]c(C)c(Cl)c(=O)c2c1 = Fulfilled
8. N=C(N)NC(=O)Nc1ccc(Cl)c(C(F)(F)F)c1 = Fulfilled

====

- Test system: Plasmodium falciparum
- assay-comment: GSK_TCMDC: Inhibition of Plasmodium falciparum 3D7 in whole erythrocytes, using parasite LDH activity as an index of growth.
- Assay type: functional, organism-based
- reported-conditions: Plasmodium falciparum, 3D7
measured-parameter: XC50 (nM)

1) CC1CN(Cc2cccc(F)c2)CCN1c1ccc(NC(=O)c2ccc(F)cc2)cc1 (centres undefined) = 580
2) COc1ccc2nc(C)cc(N/N=C/c3ccc([N+](=O)[O-])cc3)c2c1 = 695
3) COc1ccccc1-c1nc2nc(N)nc(N)c2nc1-c1ccccc1OC = 1250
4) COc1cc2s/c(=N\C(=O)c3cccc([N+](=O)[O-])c3)n(C)c2cc1OC = 722
5) C#CCN(Cc1cc2c(=O)[nH]c(N)nc2cc1C)c1ccc(C(=O)N[C@@H](CCC(=O)O)C(=O)O)cc1 = 625
6) COc1ccc(CNCc2ccsc2)cc1-c1ccc(S(=O)(=O)NCCN2CCCC2)s1 = 766
7) O=C(c1cc(C(F)(F)F)cc(C(F)(F)F)c1)N1CCC(CCN2CCC3(CC2)C(=O)NCN3c2ccccc2)CC1Cc1ccc(Cl)c(Cl)c1 (centres undefined) = 656
8) Cc1cc(O)c(CN(C)Cc2ccc3c(c2)OCCO3)cc1C(C)C = 672
9) CC(=O)Nc1nc(C(=O)Nc2cccc(-c3ccc(-c4nc5cccc(C)c5[nH]4)s3)c2)cs1 = 222

====

Here, each record is paired with measured XC50 data.
- Test system: Plasmodium falciparum
- assay-comment: GSK_TCMDC: Inhibition of Plasmodium falciparum 3D7 in whole erythrocytes, using parasite LDH activity as an index of growth.
- Type: functional, organism-based
- reported-conditions: Plasmodium falciparum, 3D7
measured-parameter: XC50 (nM)

1. CCN(CC)c1ccc(C(c2ccc(N(CC)CC)cc2)c2cccc([N+](=O)[O-])c2)cc1 = 381
2. CCCCOC(=O)c1ccc(NC(=O)Nc2ccc(Cn3ncc(N4CCCNCC4)c(Cl)c3=O)cc2)cc1 = 739
3. O=C(Nc1ccccc1)c1c[nH]cn1 = 991
4. Cc1cc(N[C@@H](Cc2ccccc2)C(=O)Nc2ccccc2)nc(NCCc2ccc(F)cc2)n1 = 860
5. Cc1cccc2c(C3CCN(CC4CCC(NC(=O)/C=C/c5ccc(Cl)c(Cl)c5)CC4)CC3)c[nH]c12 (stereo not given) = 1030
